Entry source: BindingDB's records for doi:10.1038/nchembio.2208

- target-or-system: Kallikrein-7 [37-253,Y180R] (Homo sapiens, UniProt P49862, Y180R)
- Construct: 37-253
- Sequence (P49862 37-253 Y180R): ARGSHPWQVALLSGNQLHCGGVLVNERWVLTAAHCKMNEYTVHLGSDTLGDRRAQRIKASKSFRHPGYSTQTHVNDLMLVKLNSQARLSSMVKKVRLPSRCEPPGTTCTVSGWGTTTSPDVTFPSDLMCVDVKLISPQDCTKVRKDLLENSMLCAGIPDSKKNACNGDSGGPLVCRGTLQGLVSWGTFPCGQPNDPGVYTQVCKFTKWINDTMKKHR
- test: Human KLK7 Fluorescence-Lifetime Assay
- condition-description: pH 5.6; 25 °C
- Description: The enzyme reaction was initiated by addition of the substrate Ac-[…]PT14)-Glu-NH2 (0.8 μM; Biosyntan, Berlin, Germany, product BS-#7599). Fluorescence-lifetime measurements were conducted on an Ultra Evolution fluorescence lifetime reader (TECAN, M nnedorf, Switzerland). The excitation light source was a semiconductor laser at 405 nm, producing picosecond light pulses with a selected repetition frequency of 10 MHz. […] The parameters used as assay readout were the mono-exponential lifetimes.
Listed here are compounds together with their documented IC50.

>  <structure-smiles-string>
C[C@@H](NC(=O)[C@@H]1C[C@H]2C[C@H]2N1C(=O)Cn1nc(C(N)=O)c2ccncc21)c1cccc(Cl)c1F

>  <assay-endpoint>
IC50

>  <endpoint-value>
> 100 µM

$$$$
>  <structure-smiles-string>
Cn1cc(NC(=O)N2CCC[C@H]2C(=O)NC(c2ccccc2)c2ccccc2)c2ccccc21

>  <assay-endpoint>
IC50

>  <endpoint-value>
> 100 µM

$$$$
>  <structure-smiles-string>
NC(=O)c1nn(CC(=O)N2[C@@H]3C[C@@H]3C[C@H]2C(=O)Nc2cccc(Br)n2)c2ccccc12

>  <assay-endpoint>
IC50

>  <endpoint-value>
> 100 µM

$$$$
>  <structure-smiles-string>
COc1ccc(CCNC(=O)[C@@H]2CCCN2C(=O)NCc2cccc3ccccc23)cc1

>  <assay-endpoint>
IC50

>  <endpoint-value>
0.7 µM

$$$$

Q) Fetch value of IC50 on Kallikrein-7 [37-253,Y180R] (Homo sapiens, UniProt P49862, Y180R) for COC(=O)c1ccccc1CNC(=O)N1CCC[C@H]1C(=O)Nc1cccc(OC(F)(F)F)c1 .
A) 8.7 µM

====

- target-or-system: Complement factor D [24-253] (Homo sapiens, UniProt P00746)
- Sequence (P00746 24-253): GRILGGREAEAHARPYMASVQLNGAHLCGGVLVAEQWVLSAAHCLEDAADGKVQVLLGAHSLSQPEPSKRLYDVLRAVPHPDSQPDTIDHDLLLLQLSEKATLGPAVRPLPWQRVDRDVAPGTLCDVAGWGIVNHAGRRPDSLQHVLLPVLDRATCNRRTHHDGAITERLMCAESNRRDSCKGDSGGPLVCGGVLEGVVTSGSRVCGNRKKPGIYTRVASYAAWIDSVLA
assay-endpoint: IC50

Q) State IC50 (Complement factor D [24-253] (Homo sapiens, UniProt P00746)) of COc1ccc(CCNC(=O)[C@@H]2CCCN2C(=O)NCc2cccc3ccccc23)cc1 .
A) > 30 µM
